# Protocol summary: qHTS for inhibitors of Vif-A3G interactions: Cherry picks; further: nearly all actives have a fitted effect of over 80% in size
# Experimental setup: HeLa A3G-eYFP + Vif (tagged APOBEC3G with the HIV-1 protein that degrades it), 24 h; eYFP fluorescence increase; series mostly up to 36.9 µM
About 650 (31%) of roughly 2,100 compounds were called active. Not shown: some 16% with an inconclusive outcome. The call rests on the fitted dose curve; in most records, active means well fitted inhibition curve with a large enough effect; inconclusive means small, poorly fitted or top-dose-only effect; inactive means flat fitted curve, though single readings scatter. The list shows a part of the results.
Permitted responses: active, inactive

Study these solved cases before continuing.
1. Nc1cccc(CCc2nc3cc4ccccc4cc3[nH]2)c1    inactive
2. CCN(CC)c1ccc(/C=N/NC(=S)NC)c(O)c1    inactive
3. Cc1cc(C)c2nccc(/C=C/c3ccc(N(C)C)cc3)c2c1    active

Qu. Returns: the outcome recorded for CCc1ccc2c(c1)NC(=O)C2(C)Cc1ccccc1Cl (configuration not stated) in this assay.
Ans. inactive

Qu. Moving on to CN(C)c1ccc(/C=C/c2ccnc3ccc(I)cc23)cc1
Ans. active

Qu. Moving on to COc1ccc(-n2nnnc2S(=O)(=O)Cc2ccc(C(=O)O)cc2)cc1
Ans. inactive

Qu. Moving on to COc1cc(/C=C(\C#N)c2nc3ccccc3[nH]2)ccc1O
Ans. active

Qu. Moving on to N#C/C=C/N1CCN(C(=O)c2ccco2)CC1
Ans. inactive
